test system: Stomach; assay: Biodistribution in stomach of mouse B16F0 cells implanted C57BL/6J mouse assessed per gram of tissue at 0.4 to 5.5 MBq, iv after 3 hrs by gamma counter; format: ADME, organism-based; settings: in vivo
QUANTITY_MEASURED: Drug uptake (%)

>>> value_observed("CCN(CC)CCNC(=O)c1ccc([18F])nc1")
0.83

1: CCN(CC)CCNC(=O)c1cccnc1[18F]
2: CCN(CC)CCNC(=O)c1ccnc([18F])c1
Between item 1 and item 2 , which reported Drug uptake is smaller? # answer = label of selected item
2

====

test: Lipophilicity, log P at pH 7.5; type: physicochemical; conditions: buffer
QUANTITY_MEASURED: logD

>>> value_observed("CCCCN(C)CCCCNC(=O)c1ccc([18F])nc1")
1.52
>>> value_observed("CCN(CC)CCNC(=O)c1cccnc1[18F]")
0.94
>>> value_observed("CCN(CC)CCNC(=O)c1ccnc([18F])c1")
1.22
>>> value_observed("CCN(CC)CCNC(=O)c1ccc([18F])nc1")
1.1
